- Test system: ACHN renal
- Procedure Summary: NCI-60 one-dose screen, 48 h (100 = growth as untreated, 0 = no growth, -100 = all killed)
- Assay Conditions: 10 µM unless noted
The panel holds about 83,000 compounds, 20% with a hit somewhere; the sample as a whole holds those more often.
Consider the reported growth of an entry and match it to a band in low bin (below 40%), mid bin (40% to below 90%), high bin (90% or more)

Task item: Hi, small favor: classify CCOC(=O)C1C(=O)C=C(c2cc(OC)c(OC)c(OC)c2)CC1c1sc(N(C)Cc2ccccc2)nc1Cl (stereo unspecified) by its growth when you get a moment.
Reply: mid bin

Task item: Now consider `COc1ccc2c(c1)sc1nc(-c3ccccc3)c(-c3cccc4ccccc34)n12` and answer again.
Reply: mid bin

Task item: Would you kindly repeat that for `CN1CCCN(CCNc2nccc(-c3c(-c4cccc(O)c4)nc4sccn34)n2)S1(=O)=O` ?
Reply: low bin

Task item: Cool, now `COc1ccc(NC(=O)c2sc3c(=O)[nH]c(C(F)(F)F)nc3c2C)cc1`
Reply: high bin

Task item: Similarly, `O=C(/C=C/c1ccco1)c1ccccc1O` ?
Reply: high bin

Task item: Repeat with CC(C)CC1NC(=O)C(CC(C)C)N(CO)C1=O (stereo unspecified)
Reply: high bin

Task item: Similarly, `CN1CCC2(CC1)N=C(SCC(=O)Nc1cnc3ccccc3c1)C(c1ccc(Br)cc1)=N2` ?
Reply: low bin

Task item: Now consider `COc1cc(/C=N/NC(=O)Cn2c(-c3ccc(C)o3)nc3ccccc32)ccc1OCc1ccccc1` .
Reply: mid bin

Task item: Input COc1ccc(C2c3cccn3-c3ccccc3N2C(C)=O)cc1 (stereo unspecified)
Reply: high bin

Task item: Another: `C[Si](C)(C)C(c1ccccc1)c1ccccc1`
Reply: high bin

***
Task item: Hi, small favor: classify COc1cc(CN(CCC(O)N2CCCC2=O)Cc2ccc3c(c2)OCO3)cc(OC)c1OC (stereo unspecified) by its growth when you get a moment.
Reply: high bin

Task item: Note, next up: `Cc1ccncc1NC=O`
Reply: high bin

Task item: Entry to check: COc1ccc(C2=NNC(c3ccc(Oc4nc5c(c(=O)n(C)c(=O)n5C)n4C)c(OC)c3)C2)cc1 (stereo unspecified)
Reply: high bin

Task item: # iterate: `CCCCCCCCCCCCCCCC1=NCCN1`
Reply: mid bin

Task item: And for `O=c1oc2ccccc2cc1-c1cc(-c2ccc(-c3cc(-c4cc5ccccc5oc4=O)nc(-c4cc5ccccc5oc4=O)c3)cc2)cc(-c2cc3ccccc3oc2=O)n1` ?
Reply: high bin
